# sfGFP reporter fluorescence per record follows
B1: library; numbered along this chain (parent)
chain: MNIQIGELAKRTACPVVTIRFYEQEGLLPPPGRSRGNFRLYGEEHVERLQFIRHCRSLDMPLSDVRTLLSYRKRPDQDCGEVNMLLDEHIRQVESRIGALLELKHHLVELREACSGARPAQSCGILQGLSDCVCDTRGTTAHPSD

# Variants of: B1
# RUN DESCRIPTION: sfGFP reporter fluorescence (15 h) (µM FITC); higher = stronger transcriptional activation
# MEASUREMENT CONDITIONS: library round: Round 0; ligand: 30 µM Zn
Just the number, please, no unit after it.

Consider "C123Y" . Its measured sfGFP reporter fluorescence is 0.0546

Consider "T18A" . Its measured sfGFP reporter fluorescence is 0.188

Consider "P119A" . Its measured sfGFP reporter fluorescence is 0.477

Consider "H89A" . Its measured sfGFP reporter fluorescence is 0.0673

Consider "I90R" . Its measured sfGFP reporter fluorescence is 0.97

Consider "V46F" . Its measured sfGFP reporter fluorescence is 0.66

Consider "F21E" . Its measured sfGFP reporter fluorescence is 0.0608

Consider M60L K104V L107C . Its measured sfGFP reporter fluorescence is 2.76

Consider "L129K" . Its measured sfGFP reporter fluorescence is 0.0566

Consider "Y22W" . Its measured sfGFP reporter fluorescence is 2.1

Consider "I90L" . Its measured sfGFP reporter fluorescence is 0.354

Consider "Y41Q" . Its measured sfGFP reporter fluorescence is 0.0574

Consider "C79M" . Its measured sfGFP reporter fluorescence is 0.0592

Consider "G128C" . Its measured sfGFP reporter fluorescence is 0.16

Consider "N2A" . Its measured sfGFP reporter fluorescence is 0.801
